- Study target: human μ opiate receptor (Homo sapiens, UniProt P35372)
- Sequence (P35372 whole entry): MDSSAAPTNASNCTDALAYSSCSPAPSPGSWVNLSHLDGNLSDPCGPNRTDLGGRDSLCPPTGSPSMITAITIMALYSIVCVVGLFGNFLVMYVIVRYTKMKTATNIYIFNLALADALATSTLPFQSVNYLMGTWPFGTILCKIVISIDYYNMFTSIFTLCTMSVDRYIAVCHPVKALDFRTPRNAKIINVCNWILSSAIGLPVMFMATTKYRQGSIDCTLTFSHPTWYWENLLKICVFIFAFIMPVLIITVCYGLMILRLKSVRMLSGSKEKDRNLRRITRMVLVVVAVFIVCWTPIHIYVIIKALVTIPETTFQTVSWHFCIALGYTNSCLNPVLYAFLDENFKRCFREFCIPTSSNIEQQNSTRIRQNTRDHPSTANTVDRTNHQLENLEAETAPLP
- Procedure summary: Affinity for the human μ opiate receptor ([3H]-naloxone displacement, CHO-K1 membrane preparation, SPA)
- Measurement context: Cheng-Prusoff conversion from IC50; read-out: μ opioid receptor, Ki
Readout name: Ki (nM)
// note: answer is a bare numeric in nM

1. CC1Cc2c([nH]c3ccc(F)cc23)C2(CCC(C(c3ccccc3)N(C)C)CC2)O1 (stereo not drawn)    82
2. CN(C)C(c1cccc(F)c1)C1CCC2(CC1)OCCc1c2[nH]c2ccccc12 (stereo not drawn)    33

Turning now to a further record.
Return Ki for the following molecule: CN(C)C(c1ccc(F)cc1)C1CCC2(CC1)OCCc1c2[nH]c2ccc(F)cc12 (stereo not drawn)
67
